Tested on: P-gp/BCRP/MRP2
Assay: ABC efflux transporter substrate investigation on Caco-2 cells
Conditions: human, Caco-2
Outcome measure: efflux ratio at 0.5 µM

Compound | Outcome measure | Measured result
COc1cc(N2CCC3(CCN(C)CC3)CC2)ccc1Nc1ncc(Cl)c(Nc2ccccc2P(C)(C)=O)n1 [Iruplinalkib] | efflux ratio at 0.5 µM | 20.3

----------
Target: MRP2 (Homo sapiens, UniProt Q92887)
Construct: host or cells: membrane vesicles ('Membrane capsule'), MRP2 versus NC control, with ATP or AMP
Sequence (Q92887 whole entry): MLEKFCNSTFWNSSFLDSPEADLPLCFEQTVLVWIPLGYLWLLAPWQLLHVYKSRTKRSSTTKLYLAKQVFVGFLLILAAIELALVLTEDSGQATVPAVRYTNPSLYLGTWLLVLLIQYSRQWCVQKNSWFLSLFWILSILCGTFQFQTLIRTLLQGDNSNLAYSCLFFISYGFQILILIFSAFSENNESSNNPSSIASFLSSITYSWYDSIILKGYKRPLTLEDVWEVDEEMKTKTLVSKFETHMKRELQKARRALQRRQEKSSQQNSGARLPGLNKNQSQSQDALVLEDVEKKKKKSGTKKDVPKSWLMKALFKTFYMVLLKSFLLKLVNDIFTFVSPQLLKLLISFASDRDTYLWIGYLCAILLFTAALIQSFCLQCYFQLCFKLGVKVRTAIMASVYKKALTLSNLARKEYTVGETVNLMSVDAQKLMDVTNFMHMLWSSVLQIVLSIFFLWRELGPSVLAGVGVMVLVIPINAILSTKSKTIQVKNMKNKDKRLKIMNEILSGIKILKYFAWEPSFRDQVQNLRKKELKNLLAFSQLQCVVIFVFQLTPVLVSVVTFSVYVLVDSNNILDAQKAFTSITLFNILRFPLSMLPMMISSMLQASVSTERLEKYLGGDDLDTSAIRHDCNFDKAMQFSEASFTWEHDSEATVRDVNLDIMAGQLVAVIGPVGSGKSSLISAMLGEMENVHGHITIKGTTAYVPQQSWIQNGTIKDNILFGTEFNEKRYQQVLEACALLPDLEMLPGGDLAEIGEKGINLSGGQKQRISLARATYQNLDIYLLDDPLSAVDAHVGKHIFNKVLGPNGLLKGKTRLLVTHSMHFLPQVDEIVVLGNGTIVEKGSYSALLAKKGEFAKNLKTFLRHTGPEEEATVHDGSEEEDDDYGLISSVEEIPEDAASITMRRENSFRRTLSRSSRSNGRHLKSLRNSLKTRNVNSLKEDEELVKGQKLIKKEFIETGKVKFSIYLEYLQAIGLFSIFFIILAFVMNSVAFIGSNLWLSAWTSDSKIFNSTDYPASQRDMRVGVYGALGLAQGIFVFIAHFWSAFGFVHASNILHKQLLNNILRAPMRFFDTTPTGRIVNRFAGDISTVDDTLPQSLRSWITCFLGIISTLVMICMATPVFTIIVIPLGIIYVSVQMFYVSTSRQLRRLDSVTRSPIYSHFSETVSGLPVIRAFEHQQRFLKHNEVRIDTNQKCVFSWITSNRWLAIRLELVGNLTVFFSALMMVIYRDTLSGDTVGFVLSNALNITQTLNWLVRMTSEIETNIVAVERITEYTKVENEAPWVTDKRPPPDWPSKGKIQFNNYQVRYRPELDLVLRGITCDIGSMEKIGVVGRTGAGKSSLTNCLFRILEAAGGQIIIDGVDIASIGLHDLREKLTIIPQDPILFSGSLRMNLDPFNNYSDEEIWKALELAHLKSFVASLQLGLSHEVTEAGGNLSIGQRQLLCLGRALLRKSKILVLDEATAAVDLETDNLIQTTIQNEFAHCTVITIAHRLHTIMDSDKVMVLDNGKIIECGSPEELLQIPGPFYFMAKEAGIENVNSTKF
Assay: MRP2 inhibitor investigation
Type: in vitro ADME
Conditions: probe CDCF 5 μM; MRP2; substrate CDCF 5 μM; inhibitor 0.3 μM; read-out: Inhibition rate

Compound | Measurement units | inhibition at 0.3 μM
COc1cc(N2CCC3(CCN(C)CC3)CC2)ccc1Nc1ncc(Cl)c(Nc2ccccc2P(C)(C)=O)n1 [Iruplinalkib] | % | -8.8
